B1: library; numbered along this chain (parent)
chain: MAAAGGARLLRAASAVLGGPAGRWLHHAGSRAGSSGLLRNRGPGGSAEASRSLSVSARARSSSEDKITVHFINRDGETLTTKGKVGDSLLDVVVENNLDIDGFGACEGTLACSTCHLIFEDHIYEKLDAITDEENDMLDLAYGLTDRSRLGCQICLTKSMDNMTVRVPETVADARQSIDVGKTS

- Variants of: B1
- assay_info: scaled log2 fold change in cell abundance, elesclomol vs control (0 = silent mean, 1 = nonsense mean) (scaled log2 ratio); higher = higher viability under elesclomol (loss of FDX1 cuproptosis function);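 further: variant abundance is its share of total variant reads in each endpoint sample, from next-generation sequencing of the integrated ORF PCR-amplified out of genomic DNA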
- cond: with ABC1 FDX1 KO; elesclomol 5 nM; glucose 10 mM; 14 days
Kindly supply the reported scaled log2 fold change values for the records listed here.
Numbers only.

Below are worked cases with known answers.
H116T 0.317
L138F 0.0535

Please report scaled log2 fold change for every entry that follows.
1. L110G
2. G36R

Key:
[-1.14, -0.252]

Please report scaled log2 fold change for every entry that follows.
1. T109D
2. T78H
3. F71C
4. I123T
5. A59D
6. D128N

Key:
[-0.669, -0.378, 0.161, 0.223, -0.0282, -0.106]
